- Experiment: recombinant UMI read abundance after kanamycin selection (control-corrected) (log10(CPM+1)); higher = more efficient recombination; extreme values may be limits of the assay; sequences stand for … in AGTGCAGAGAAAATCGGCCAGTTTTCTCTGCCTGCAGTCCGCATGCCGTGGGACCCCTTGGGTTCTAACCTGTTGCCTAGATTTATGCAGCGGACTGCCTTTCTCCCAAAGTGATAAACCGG…AGGTTGGTTTCACT; site = the 11-nt donor
Quantity Kind: recombinant UMI read abundance (log10)

CCCTTCACATGGACCGGTTTTCCCGGTAATCCGTATTTGGG (site CCCTTCCCTCC) : 0.0128
AACGGTCCATGGACCGGTTTTCCCGGTAATCCGTATTTGAT (site AACAGTCCTAT) : 0.00739
GTAGTTACATGGACCGGTTTTCCCGGTAATCCGTATTTGAC (site GTAGATACTGT) : 2.18
CATGCGCCATGGACCGGTTTTCCCGGTAATCCGTATTTGTG (site CACGCGCCTCA) : 0.0136
AGGATGACATGGACCGGTTTTCCCGGTAATCCGTATTTGCG (site AGGAAGACTTG) : 0

----------
- Experiment: recombinant UMI read abundance after kanamycin selection (control-corrected) (log10(CPM+1)); higher = more efficient recombination; extreme values may be limits of the assay; sequences stand for … in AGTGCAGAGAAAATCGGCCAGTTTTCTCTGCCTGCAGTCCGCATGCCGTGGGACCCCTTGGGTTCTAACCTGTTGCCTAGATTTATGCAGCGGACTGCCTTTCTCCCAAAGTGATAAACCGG…AGGTTGGTTTCACT; site = the 11-nt donor
In this section, each of the sequences is paired with its reported recombinant UMI read abundance (log10).
Quantity Kind: recombinant UMI read abundance (log10)

AGGGTCCCATGGACCGGTTTTCCCGGTAATCCGTATTTGTC (site AGGGTCCCTGA) : 0.534
CACGCGTCATGGACCGGTTTTCCCGGTAATCCGTATTTGGG (site CACGCGTCTCC) : 1.04
CTGGAAACATGGACCGGTTTTCCCGGTAATCCGTATTTGCA (site CTGGAAACTGG) : 0
GCTACAGCATGGACCGGTTTTCCCGGTAATCCGTATTTGCC (site GCTACCGCTGG) : 0
AGAAAGGCATGGACCGGTTTTCCCGGTAATCCGTATTTGGT (site AGAAAGGCTAA) : 1.65

----------
- Experiment: recombinant barcode read abundance after kanamycin selection (control-corrected) (log10(CPM+1)); higher = more efficient recombination; sequences stand for … in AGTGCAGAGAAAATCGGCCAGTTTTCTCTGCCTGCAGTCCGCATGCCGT…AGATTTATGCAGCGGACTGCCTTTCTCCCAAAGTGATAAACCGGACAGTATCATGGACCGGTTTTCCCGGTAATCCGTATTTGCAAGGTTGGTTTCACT; site = the 11-nt target
Note to self: class = bucket of recombinant barcode read abundance (log10), per b0 (below 0.09), b1 (0.09 to below 0.6), b2 (0.6 or more)

GACTCTCCTTGGGTTCTAACCTGTTGCGT (site GACTCTCCTAC) : b2
CGAACCGCTTGGGTTCTAACCTGTTGCCT (site CTAACCGCTAG) : b0
GTCAATTCTTGGGTTCTAACCTGTTGCCT (site GTCAATTCTAG) : b2
GTCGTAGCTTGGGTTCTAACCTGTTGCCT (site GCCGTAGCTAG) : b0
GCTTGAACTTGGGTTCTAACCTGTTGCTT (site GCTTGAACTAA) : b1
AGTATCGCTTGGGTTCTAACCTGTTGCGG (site AGTGTCGCTCC) : b0
CTACAGACTTGGGTTCTAACCTGTTGCGC (site CTACAGACTTC) : b1
CGAATCACTTGGGTTCTAACCTGTTGCCT (site CGAATCTCTAG) : b0
ATGTCTCCTTGGGTTCTAACCTGTTGCCT (site CTGTCTCCTAG) : b0
GGAATGACTTGGGTTCTAACCTGTTGCCT (site GTAATGACTAG) : b1
CTCCCTGCTTGGGTTCTAACCTGTTGCCT (site CTCCCTGCTAG) : b2
CGGAATCCTTGGGTTCTAACCTGTTGCAT (site CGGAATCCTAA) : b1
AAAGGGGCTTGGGTTCTAACCTGTTGCCT (site AAAGGGGCTAG) : b2
ACAGAGACTTGGGTTCTAACCTGTTGCAC (site ACAGAGACTTA) : b1
ATCCCCTCTTGGGTTCTAACCTGTTGCCT (site ATCCCCTCTAG) : b2
TCCCAGCCTTGGGTTCTAACCTGTTGCTG (site TCCCATCCTAA) : b1
TTGAATGCTTGGGTTCTAACCTGTTGCCT (site TTGAGTGCTAG) : b0
CGCCACACTTGGGTTCTAACCTGTTGCCT (site CGGCACACTAG) : b2
GACTCTCCTTGGGTTCTAACCTGTTGCAT (site GACTCTCCTAT) : b1
CCGATATCTTGGGTTCTAACCTGTTGCCT (site CCGTTATCTAG) : b1

----------
- Experiment: recombinant barcode read abundance after kanamycin selection (control-corrected) (log10(CPM+1)); higher = more efficient recombination; sequences stand for … in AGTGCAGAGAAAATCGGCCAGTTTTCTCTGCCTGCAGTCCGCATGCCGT…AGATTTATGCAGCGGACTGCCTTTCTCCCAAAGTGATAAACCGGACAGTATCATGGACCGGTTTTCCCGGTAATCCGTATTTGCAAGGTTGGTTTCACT; site = the 11-nt target
recombinant barcode read abundance (log10) of 0.2 or higher: t. Under 0.2: f.

TTGGCGACTTGGGTTCTAACCTGTTGCCA (site TTGTCGACTTG) : f
CTAGGAACTTGGGTTCTAACCTGTTGCTA (site CTAGGAACTTA) : t
TCCCTTCCTTGGGTTCTAACCTGTTGCCT (site TCCCGTCCTAG) : f
CAGAACACTTGGGTTCTAACCTGTTGCCT (site TAGAACACTAG) : f
TGAGGGCCTTGGGTTCTAACCTGTTGCCT (site AGAGGTCCTAG) : f
AGACTCCCTTGGGTTCTAACCTGTTGCCT (site AGGCTCCCTAG) : f
TAACGGTCTTGGGTTCTAACCTGTTGCTT (site TAACGGTCTAA) : t
AGCCTCCCTTGGGTTCTAACCTGTTGCCA (site AGCCTCCCTTG) : t
ATGCAACCTTGGGTTCTAACCTGTTGCCT (site ATGCAACCTAG) : t

----------
- Experiment: recombinant barcode read abundance after kanamycin selection (control-corrected) (log10(CPM+1)); higher = more efficient recombination; sequences stand for … in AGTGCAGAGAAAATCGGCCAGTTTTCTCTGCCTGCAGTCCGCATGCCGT…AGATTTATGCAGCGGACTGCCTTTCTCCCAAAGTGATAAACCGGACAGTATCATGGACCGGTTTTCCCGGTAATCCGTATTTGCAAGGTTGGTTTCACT; site = the 11-nt target
A collection of sequences and their measured recombinant barcode read abundance (log10)
Quantity Kind: recombinant barcode read abundance (log10)

CTCTACTCTTGGGTTCTAACCTGTTGCCT (site TTCTACTCTAG) : 0.0366
TAGCACCCTTGGGTTCTAACCTGTTGCCG (site TAGCACCCTTG) : 0.356
CCTCGGCCTTGGGTTCTAACCTGTTGCAT (site CCTCGGCCTAT) : 0.862
TATAATACTTGGGTTCTAACCTGTTGCGA (site TATACTACTTA) : 0.0449
TTGGTACCTTGGGTTCTAACCTGTTGCCT (site TTGGTACCTAG) : 2.41
GAGTAGCCTTGGGTTCTAACCTGTTGCGG (site GAGTAGCCTCC) : 2.59
GGCATATCTTGGGTTCTAACCTGTTGCCT (site GGCATATCTAG) : 0.048
ACTCGGCCTTGGGTTCTAACCTGTTGCGT (site ACTCGGCCTAC) : 2.56
CTATTGTCTTGGGTTCTAACCTGTTGCGT (site CTATTGTCTCC) : 0.019
CAAACATCTTGGGTTCTAACCTGTTGCCT (site CAAACAACTAG) : 0.129
CCGTTGTCTTGGGTTCTAACCTGTTGCTA (site GGTCGTACTAG) : 0.0443
TCCGAGACTTGGGTTCTAACCTGTTGCCA (site TCCGAGACTTG) : 1.34
CAACCTTCTTGGGTTCTAACCTGTTGCCT (site CTACCTTCTAG) : 0.025
ATATGTGCTTGGGTTCTAACCTGTTGCCG (site ATATGAGCTCG) : 0.0211
AGCCATCCTTGGGTTCTAACCTGTTGCAT (site TGCCATCCTAT) : 0.0638
CAAGTCCCTTGGGTTCTAACCTGTTGCCT (site AAAGTCCCTAG) : 0.0441
TGTTCTCCTTGGGTTCTAACCTGTTGCCT (site AGTTCTCCTAG) : 0.0134
GATAGGGCTTGGGTTCTAACCTGTTGCGG (site TATAGGGCTCG) : 0.362
GCTTGGCCTTGGGTTCTAACCTGTTGCCT (site CCTTGGTCTAG) : 0.211
ATAGTCCCTTGGGTTCTAACCTGTTGCCT (site ATAGTCCCTAG) : 2.25
GGCGCGTCTTGGGTTCTAACCTGTTGCCT (site GGCGCATCTAG) : 0.607
TGTAGATCTTGGGTTCTAACCTGTTGCAT (site TGTTGACCTAT) : 0.15
AACATTCCTTGGGTTCTAACCTGTTGCCT (site GACATTCCTAG) : 0.355
GCACGAACTTGGGTTCTAACCTGTTGCCT (site GCTCGAACTAG) : 0.0171
AGCGGCCCTTGGGTTCTAACCTGTTGCCT (site AGCGGACCTAG) : 0.466
GCGTGGACTTGGGTTCTAACCTGTTGCCT (site GCGTGGACTAG) : 1.61
CTCTGAGCTTGGGTTCTAACCTGTTGCAG (site CTCTGAGCTCT) : 0.538
TACCACTCTTGGGTTCTAACCTGTTGCCT (site CACCACTCTAG) : 0.887
ACGCCTCCTTGGGTTCTAACCTGTTGCTG (site ACGCCTCCTCA) : 0.384
GACCAGCCTTGGGTTCTAACCTGTTGCCT (site GACCAGCCTAT) : 0.359
ACAAAAGCTTGGGTTCTAACCTGTTGCGG (site ACAAAGGCTCC) : 0.514
GTGTTTGCTTGGGTTCTAACCTGTTGCCT (site GAGTTTGCTAG) : 0.0456
CCGCCGGCTTGGGTTCTAACCTGTTGCCT (site CCGCCCGCTAG) : 0.222
ATAGGGACTTGGGTTCTAACCTGTTGCCT (site ATAGGGACTAG) : 2.31
GAGCAGTCTTGGGTTCTAACCTGTTGCCT (site GAGGAGTCTAG) : 0.117
CAGCCCTCTTGGGTTCTAACCTGTTGCCT (site CCGCCCTCTAG) : 0.883
AAAGGTCCTTGGGTTCTAACCTGTTGCAG (site AAAGGTCCTCT) : 2.69
GGGCAGCCTTGGGTTCTAACCTGTTGCCT (site GGGCAGCCTAG) : 0.458
GCAAATCCTTGGGTTCTAACCTGTTGCCT (site GCAAATCCTAG) : 0.873
CTACAGACTTGGGTTCTAACCTGTTGCGC (site CTACAGACTCC) : 0.221
AATGAATCTTGGGTTCTAACCTGTTGCCT (site AATGTATCTAG) : 0.301
ACACCACCTTGGGTTCTAACCTGTTGCCT (site ATACCACCTAG) : 0.0171
